Tested on: CCRF-CEM
Assay: NCI tumour cell line growth inhibition, 48 h
The source made the active and inactive calls. Rule as the data show it: active = GI50 up to about 1.1 µM and inactive = higher.
Recorded GI50 by entry

Cc1ccccc1NC(=O)Cc1nc2ccccc2s1
9.51 µM (inactive)
COC(=O)Cc1c(C2=Nc3ccccc3C2(O)CC(=O)OC)[nH]c2ccccc12 (stereo not given)
20.1 µM (inactive)
CC(C)c1cccc(C(C)C)c1NC(=O)C(=O)CC(=O)CC(c1ccccc1)c1c(O)oc2ccccc2c1=O (stereo not given)
> 100 µM (inactive)
COc1ccc(C2=C(Cl)c3cc(OC)c(OC)cc3C2OC)cc1OC (stereo not given)
50.2 µM (inactive)

Consider now this further compound.
GI50 in this record for `Cc1[nH]c2cc([N+](=O)[O-])ccc2c1[N+](=O)[O-]` : 16.8 µM (inactive)
